Target protein (sequence): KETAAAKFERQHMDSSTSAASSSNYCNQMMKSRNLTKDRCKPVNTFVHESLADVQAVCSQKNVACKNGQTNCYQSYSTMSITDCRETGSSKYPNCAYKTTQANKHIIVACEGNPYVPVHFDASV

smiles_structure | Ki
O=C(Nc1ccc(Cc2ccc(NC(=O)c3cccc([N+](=O)[O-])c3)c(C(=O)O)c2)cc1C(=O)O)c1cccc([N+](=O)[O-])c1 | ~12 µM

---

- assay_system: DNase I (Bos taurus)
- Sequence (P00639 23-282): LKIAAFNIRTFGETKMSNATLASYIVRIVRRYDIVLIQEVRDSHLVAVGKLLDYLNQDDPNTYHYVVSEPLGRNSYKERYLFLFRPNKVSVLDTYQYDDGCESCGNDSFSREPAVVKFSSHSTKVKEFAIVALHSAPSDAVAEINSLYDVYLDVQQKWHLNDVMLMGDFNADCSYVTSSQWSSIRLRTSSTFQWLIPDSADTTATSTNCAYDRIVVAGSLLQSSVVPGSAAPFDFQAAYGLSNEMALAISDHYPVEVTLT
- measurement_description: Lambda DNA digestion assay with DNase I
- Type: biochemical
- test_parameters: 0.1 U DNase, inhibitor at 5×Ki
quantity_measured: DNase inhibition

molecule | recorded_result
Cc1ccc(C)n1-c1cccc(C(=O)O)c1 | modestly inhibitory
O=C(N/N=C(\c1ccccc1)c1ccncc1)c1ccccc1 | modestly inhibitory
O=C(O)C1=NN(c2ccccc2)C(=O)\C1=C/C=C/C=C/C1C(=O)N(c2ccccc2)N=C1C(=O)O (centres unmarked) | modestly inhibitory

These data points were gathered from patent US7264932B2.
